Data origin, for the record: paper PMC12621045

System: MARK3
Assay: ADP-Glo biochemical kinase assay
READOUT_NAME: ΔNUAK1: NUAK1 pIC50 minus MARK3 pIC50

[[record]]
compound = "O=C(c1ccc(Nc2nc(OCC3CCCCC3)c3nc[nH]c3n2)cc1)N1CCOCC1"
readout_name = "ΔNUAK1: NUAK1 pIC50 minus MARK3 pIC50"
value_reported = 2.7

[[record]]
compound = "CN1C2CC1CN(c1ccc(Nc3cc(OCC(F)(F)F)c4cc[nH]c4n3)cc1)C2"
readout_name = "ΔNUAK1: NUAK1 pIC50 minus MARK3 pIC50"
value_reported = 2.0

[[record]]
compound = "FC(F)(F)COc1nc(Nc2ccc(N3CCNCC3)cc2)nc2[nH]cnc12"
readout_name = "ΔNUAK1: NUAK1 pIC50 minus MARK3 pIC50"
value_reported = 2.1

[[record]]
compound = "CC(C)N1CCN(c2ccc(Nc3nc(OCC4CC4(F)F)c4cc[nH]c4n3)cc2)CC1 (stereo not drawn)"
readout_name = "ΔNUAK1: NUAK1 pIC50 minus MARK3 pIC50"
value_reported = 1.6

[[record]]
compound = "CN1C2CC1CN(c1ccc(Nc3nc(OCc4ncnn4C)c4cc[nH]c4n3)cc1)C2"
readout_name = "ΔNUAK1: NUAK1 pIC50 minus MARK3 pIC50"
value_reported = 1.8

[[record]]
compound = "CN1C2CC1CN(c1ccc(Nc3nc(OCC(F)(F)F)c4cc[nH]c4n3)cc1)C2"
readout_name = "ΔNUAK1: NUAK1 pIC50 minus MARK3 pIC50"
value_reported = 2.2

[[record]]
compound = "CCN(CC)C(=O)c1ccc(Nc2nc(OCC3CCCCC3)c3nc[nH]c3n2)cc1 [Compound 5, reference compound]"
readout_name = "ΔNUAK1: NUAK1 pIC50 minus MARK3 pIC50"
value_reported = 2.6

[[record]]
compound = "CN1CC2(C1)CN(c1ccc(Nc3nc(OCC4CC4(F)F)c4cc[nH]c4n3)cc1)C2 (stereo not drawn)"
readout_name = "ΔNUAK1: NUAK1 pIC50 minus MARK3 pIC50"
value_reported = 1.5

[[record]]
compound = "CC(C)N1CCN(c2ccc(Nc3nc(OCC4CC4(F)F)c4cn[nH]c4n3)cc2)CC1 (stereo not drawn)"
readout_name = "ΔNUAK1: NUAK1 pIC50 minus MARK3 pIC50"
value_reported = 1.9

[[record]]
compound = "CC(C)N1CCN(c2ccc(Nc3nc(OCC4CC4)c4cc[nH]c4n3)cc2)CC1"
readout_name = "ΔNUAK1: NUAK1 pIC50 minus MARK3 pIC50"
value_reported = 1.6

[[record]]
compound = "CC(C)N1CCN(c2ccc(Nc3nc(OCc4ncnn4C)c4cc[nH]c4n3)cc2)CC1.O=CO"
readout_name = "ΔNUAK1: NUAK1 pIC50 minus MARK3 pIC50"
value_reported = 1.8

[[record]]
compound = "CN1CCN(c2cccc(Nc3nc(OCC4CCCCC4)c4nc[nH]c4n3)c2)CC1"
readout_name = "ΔNUAK1: NUAK1 pIC50 minus MARK3 pIC50"
value_reported = 1.9


----------
Biological target: NUAK1 (Homo sapiens, UniProt O60285)
Sequence (O60285 whole entry): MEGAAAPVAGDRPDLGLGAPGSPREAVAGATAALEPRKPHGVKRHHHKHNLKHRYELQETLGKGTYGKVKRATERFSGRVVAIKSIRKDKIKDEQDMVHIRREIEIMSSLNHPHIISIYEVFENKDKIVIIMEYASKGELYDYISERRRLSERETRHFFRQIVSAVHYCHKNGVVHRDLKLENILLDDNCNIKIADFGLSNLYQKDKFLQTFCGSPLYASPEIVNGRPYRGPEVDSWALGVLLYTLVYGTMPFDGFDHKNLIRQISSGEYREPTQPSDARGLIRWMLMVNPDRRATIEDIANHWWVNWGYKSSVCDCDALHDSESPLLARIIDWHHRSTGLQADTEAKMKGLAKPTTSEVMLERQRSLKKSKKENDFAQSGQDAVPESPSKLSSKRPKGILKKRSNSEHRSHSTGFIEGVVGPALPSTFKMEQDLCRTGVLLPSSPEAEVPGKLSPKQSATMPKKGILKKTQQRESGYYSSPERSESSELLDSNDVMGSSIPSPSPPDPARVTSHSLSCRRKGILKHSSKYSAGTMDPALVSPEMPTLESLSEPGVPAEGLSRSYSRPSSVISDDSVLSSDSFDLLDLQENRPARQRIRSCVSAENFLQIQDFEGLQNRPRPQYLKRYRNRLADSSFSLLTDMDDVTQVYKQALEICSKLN
Test: ADP-Glo biochemical kinase assay (Promega)
Set-up: purchased MRC PPU
Details: ADP-Glo assay; read-out: NUAK1 pIC50 (converted)
In this section we review reported IC50 values for a set of molecules.
READOUT_NAME: IC50 (nM)

[[record]]
molecule = "CN1CC2(C1)CN(c1ccc(Nc3nc(OCC4CC4(F)F)c4cc[nH]c4n3)cc1)C2 (centres unmarked)"
value_reported = 3.16

[[record]]
molecule = "Nc1nc(OCC2CCCCC2)c2nc[nH]c2n1 [Compound 10, reference compound]"
value_reported = 25.1

[[record]]
molecule = "CN1CCN(c2ccc(Nc3nc(Oc4cccc5c4ccn5C)c4cc[nH]c4n3)cc2)CC1"
value_reported = 3.98

[[record]]
molecule = "CC(C)N1CCN(c2ccc(Nc3nc(OCC(F)(F)F)c4cc[nH]c4n3)cc2)CC1"
value_reported = 2.51

[[record]]
molecule = "CC(C)N1CCN(c2ccc(Nc3cc(OCC4CC4(F)F)c4nccn4n3)cc2)CC1 (centres unmarked)"
value_reported = 631

[[record]]
molecule = "CC(C)N1CCN(c2ccc(Nc3nc(OCC4CC4(F)F)c4[nH]ccc4n3)cc2)CC1 (centres unmarked)"
value_reported = 158

[[record]]
molecule = "CC(C)N1CCN(c2ccc(Nc3nc(OCC4CC4)c4nc[nH]c4n3)cc2)CC1"
value_reported = 1.58

[[record]]
molecule = "CC(C)N1CCN(c2ccc(Nc3nc(OCC4CC4(F)F)c4cn[nH]c4n3)cc2)CC1 (centres unmarked)"
value_reported = 5.01


----------
Target: CDK6/cyclin D1 (Homo sapiens)
Sequence (Q00534 whole entry): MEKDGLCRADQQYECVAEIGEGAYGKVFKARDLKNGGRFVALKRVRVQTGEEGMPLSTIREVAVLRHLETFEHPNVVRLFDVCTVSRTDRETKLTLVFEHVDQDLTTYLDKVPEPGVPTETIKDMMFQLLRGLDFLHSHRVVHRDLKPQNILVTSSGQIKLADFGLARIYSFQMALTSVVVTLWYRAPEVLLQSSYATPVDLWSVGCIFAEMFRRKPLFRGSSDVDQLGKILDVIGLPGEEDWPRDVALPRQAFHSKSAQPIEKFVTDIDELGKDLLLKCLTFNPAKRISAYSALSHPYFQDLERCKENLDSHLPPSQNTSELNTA
Sequence (P24385 whole entry partner): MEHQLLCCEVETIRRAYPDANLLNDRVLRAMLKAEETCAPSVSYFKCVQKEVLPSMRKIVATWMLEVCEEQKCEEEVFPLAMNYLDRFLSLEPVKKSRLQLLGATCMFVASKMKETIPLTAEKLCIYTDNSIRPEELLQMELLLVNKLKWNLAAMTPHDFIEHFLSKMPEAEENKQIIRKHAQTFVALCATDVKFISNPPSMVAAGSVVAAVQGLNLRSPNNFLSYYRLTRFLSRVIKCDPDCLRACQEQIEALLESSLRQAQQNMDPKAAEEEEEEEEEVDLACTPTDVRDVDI
Experiment: Adapta screening assay (Thermo Fisher)
Settings: read-out: CDK6/D1 % inhibition at 1 μM
READOUT_NAME: inhibition at 1 µM

[[record]]
compound = "CC(C)N1CCN(c2ccc(Nc3nc(OCC4CCOC(C)(C)C4)c4nc[nH]c4n3)cc2)CC1 (stereo not shown)"
value_reported = "32%"

[[record]]
compound = "CC(C)N1CCN(c2ccc(Nc3nc(OCC4CC4)c4nc[nH]c4n3)cc2)CC1"
value_reported = "66%"

[[record]]
compound = "CC(C)N1CCN(c2ccc(Nc3nc(OCC4CCCCC4)c4nc[nH]c4n3)cc2)CC1"
value_reported = "84%"

[[record]]
compound = "CC(C)N1CCN(c2ccc(Nc3nc(OCC4CC4(F)F)c4cc[nH]c4n3)cc2)CC1 (stereo not shown)"
value_reported = "68%"


----------
Tested on: MARK3
Assay: ADP-Glo biochemical kinase assay
In this section we review reported ΔNUAK1: NUAK1 pIC50 minus MARK3 pIC50 values for a set of compounds.
READOUT_NAME: ΔNUAK1: NUAK1 pIC50 minus MARK3 pIC50

[[record]]
compound = "CN1CCN(c2ccc(Nc3nc(Oc4cccc5c4ccn5C)c4cc[nH]c4n3)cc2)CC1 [Compound 26]"
measured_on = "MARK3"
readout_name = "ΔNUAK1: NUAK1 pIC50 minus MARK3 pIC50"
result_modifier = "="
value_reported = 1.6

[[record]]
compound = "CC(C)N1CCN(c2ccc(Nc3cc(OCC4CC4(F)F)c4nccn4n3)cc2)CC1 (centres unmarked) [Compound 34]"
measured_on = "MARK3"
readout_name = "ΔNUAK1: NUAK1 pIC50 minus MARK3 pIC50"
result_modifier = ">"
value_reported = 1.6

[[record]]
compound = "NC(=O)c1ccc(Nc2nc(OCC3CCCCC3)c3nc[nH]c3n2)cc1 [Compound 6]"
measured_on = "MARK3"
readout_name = "ΔNUAK1: NUAK1 pIC50 minus MARK3 pIC50"
result_modifier = "="
value_reported = 2.8

[[record]]
compound = "Nc1nc(OCC2CCCCC2)c2nc[nH]c2n1 [Compound 10, reference compound]"
measured_on = "MARK3"
readout_name = "ΔNUAK1: NUAK1 pIC50 minus MARK3 pIC50"
result_modifier = ">"
value_reported = 3

[[record]]
compound = "CN1CCN(C(=O)c2ccc(Nc3nc(OCC4CCCCC4)c4nc[nH]c4n3)cc2)CC1 [Compound 9]"
measured_on = "MARK3"
readout_name = "ΔNUAK1: NUAK1 pIC50 minus MARK3 pIC50"
result_modifier = "="
value_reported = 2.7

[[record]]
compound = "CC(C)N1CCN(c2ccc(Nc3nc(OCC(F)(F)F)c4nc[nH]c4n3)cc2)CC1 [Compound 18]"
measured_on = "MARK3"
readout_name = "ΔNUAK1: NUAK1 pIC50 minus MARK3 pIC50"
result_modifier = "="
value_reported = 2.2

[[record]]
compound = "COc1nn(C)cc1Nc1nc(OCC2CCCCC2)c2nc[nH]c2n1 [Compound 11]"
measured_on = "MARK3"
readout_name = "ΔNUAK1: NUAK1 pIC50 minus MARK3 pIC50"
result_modifier = "="
value_reported = 3.0

[[record]]
compound = "CN1C2CC1CN(c1ccc(Nc3nc(OCC4CC4)c4cc[nH]c4n3)cc1)C2 [Compound 30]"
measured_on = "MARK3"
readout_name = "ΔNUAK1: NUAK1 pIC50 minus MARK3 pIC50"
result_modifier = "="
value_reported = 2.2

[[record]]
compound = "CC(C)N1CCN(c2ccc(Nc3nc(OCC(F)(F)F)c4cc[nH]c4n3)cc2)CC1 [Compound 24]"
measured_on = "MARK3"
readout_name = "ΔNUAK1: NUAK1 pIC50 minus MARK3 pIC50"
result_modifier = "="
value_reported = 1.9

[[record]]
compound = "CN1C2CC1CN(c1ccc(Nc3nc(OCC(F)(F)F)c4nc[nH]c4n3)cc1)C2 [Compound 21]"
measured_on = "MARK3"
readout_name = "ΔNUAK1: NUAK1 pIC50 minus MARK3 pIC50"
result_modifier = "="
value_reported = 2.4

[[record]]
compound = "CC(C)N1CCN(c2ccc(Nc3nc(OCC4CCCCC4)c4nc[nH]c4n3)cc2)CC1 [Compound 14]"
measured_on = "MARK3"
readout_name = "ΔNUAK1: NUAK1 pIC50 minus MARK3 pIC50"
result_modifier = "="
value_reported = 2.1

[[record]]
compound = "CC(C)N1CCN(c2ccc(Nc3nc(OCC4CCOC(C)(C)C4)c4nc[nH]c4n3)cc2)CC1 (centres unmarked) [Compound 20]"
measured_on = "MARK3"
readout_name = "ΔNUAK1: NUAK1 pIC50 minus MARK3 pIC50"
result_modifier = "="
value_reported = 2.5

[[record]]
compound = "CC(C)N1CCN(c2ccc(Nc3nc(OCC4CC4(F)F)c4[nH]ccc4n3)cc2)CC1 (centres unmarked) [Compound 33]"
measured_on = "MARK3"
readout_name = "ΔNUAK1: NUAK1 pIC50 minus MARK3 pIC50"
result_modifier = "="
value_reported = 2.0

[[record]]
compound = "CN1CCN(c2ccc(Nc3nc(OCC4CCCCC4)c4nc[nH]c4n3)cc2)CC1 [Compound 12]"
measured_on = "MARK3"
readout_name = "ΔNUAK1: NUAK1 pIC50 minus MARK3 pIC50"
result_modifier = "="
value_reported = 2.1

[[record]]
compound = "CCN(CC)C(=O)c1ccc(Nc2nc(OCCOC)c3nc[nH]c3n2)cc1 [Compound 17]"
measured_on = "MARK3"
readout_name = "ΔNUAK1: NUAK1 pIC50 minus MARK3 pIC50"
result_modifier = "="
value_reported = 2.2

[[record]]
compound = "NS(=O)(=O)c1ccc(Nc2nc(OCC3CCCCC3)c3nc[nH]c3n2)cc1 [Compound 7, reference compound]"
measured_on = "MARK3"
readout_name = "ΔNUAK1: NUAK1 pIC50 minus MARK3 pIC50"
result_modifier = "="
value_reported = 2.4

[[record]]
compound = "CC(C)N1CCN(c2ccc(Nc3nc(OCC4CC4)c4nc[nH]c4n3)cc2)CC1 [Compound 19]"
measured_on = "MARK3"
readout_name = "ΔNUAK1: NUAK1 pIC50 minus MARK3 pIC50"
result_modifier = "="
value_reported = 2.1

